These data points were gathered from patent US20240294541A1.

# Test system: PFSK-1 (malignant primitive neuroectodermal tumour)
# PROTOCOL: In vitro cytotoxicity, SRB assay, PFSK-1
# Assay type: cell-based
# CONDITION SUMMARY: Homo sapiens, PFSK-1; 72 h with compound, SRB; n/a = non-active compound; read-out: PFSK-1 IC50
For each of the compounds below, state its IC50.
Give bare numbers, in nM.

// below: answered compounds
Problem: Need IC50 of CC[C@@H](C(=O)[C@@H](C)[C@@H](O)[C@H](C)[C@@H]1O[C@@H]([C@@H](CC)C(=O)O)CC[C@@H]1C)[C@H]1O[C@]2(C=C[C@@H](NC(=O)NC3CCCC3)[C@]3(CC[C@@](C)([C@H]4CC[C@](O)(CC)[C@H](C)O4)O3)O2)[C@H](C)C[C@@H]1C [FLC-00351-1] , thanks.
Result: 10.7

Problem: Need IC50 of CC[C@@H](C(=O)[C@@H](C)[C@@H](O)[C@H](C)[C@@H]1O[C@@H]([C@@H](CC)C(=O)O)CC[C@@H]1C)[C@H]1O[C@]2(C=C[C@@H](NC(=O)NCCCl)[C@]3(CC[C@@](C)([C@H]4CC[C@](O)(CC)[C@H](C)O4)O3)O2)[C@H](C)C[C@@H]1C [FLC-00338-1 Na] , thanks.
Result: 53.1

Problem: Need IC50 of CC[C@@H](C(=O)[C@@H](C)[C@@H](O)[C@H](C)[C@@H]1O[C@@H]([C@@H](CC)C(=O)O)CC[C@@H]1C)[C@H]1O[C@]2(C=C[C@@H](NC(=O)Nc3cc(C(F)(F)F)cc(C(F)(F)F)c3)[C@]3(CC[C@@](C)([C@H]4CC[C@](O)(CC)[C@H](C)O4)O3)O2)[C@H](C)C[C@@H]1C [FLC-00344-1 Na] , thanks.
Result: 112

Problem: Need IC50 of CCNC(=O)N[C@@H]1C=C[C@]2(O[C@H]([C@@H](CC)C(=O)[C@@H](C)[C@@H](O)[C@H](C)[C@@H]3O[C@@H]([C@@H](CC)C(=O)O)CC[C@@H]3C)[C@@H](C)C[C@H]2C)O[C@@]12CC[C@@](C)([C@H]1CC[C@](O)(CC)[C@H](C)O1)O2 [FLC-00358-1] , thanks.
Result: 32.3

Problem: Need IC50 of CCNC(=S)N[C@@H]1C=C[C@]2(O[C@H]([C@@H](CC)C(=O)[C@@H](C)[C@@H](O)[C@H](C)[C@@H]3O[C@@H]([C@@H](CC)C(=O)O)CC[C@@H]3C)[C@@H](C)C[C@H]2C)O[C@@]12CC[C@@](C)([C@H]1CC[C@](O)(CC)[C@H](C)O1)O2 [FLC-00339-1 Na] , thanks.
Result: 16.1

// each compound listed below needs its IC50
1. CC[C@@H](C(=O)[C@@H](C)[C@@H](O)[C@H](C)[C@@H]1O[C@@H]([C@@H](CC)C(=O)O)CC[C@@H]1C)[C@H]1O[C@]2(C=C[C@@H](NC(=O)NCCc3ccccc3)[C@]3(CC[C@@](C)([C@H]4CC[C@](O)(CC)[C@H](C)O4)O3)O2)[C@H](C)C[C@@H]1C [FLC-00362-1]
2. CC[C@@H](C(=O)[C@@H](C)[C@@H](O)[C@H](C)[C@@H]1O[C@@H]([C@@H](CC)C(=O)O)CC[C@@H]1C)[C@H]1O[C@]2(C=C[C@@H](NC(=O)NS(=O)(=O)c3ccc(C)cc3)[C@]3(CC[C@@](C)([C@H]4CC[C@](O)(CC)[C@H](C)O4)O3)O2)[C@H](C)C[C@@H]1C [FLC-00364-1]

Result:
1. 38.4
2. 5600
